pIC50: −log10 of the molar value.
Recorded below: pIC50, system mTOR (Homo sapiens (Human), UniProt P42345).

{"compound": "CN(C)S(=O)(=O)Nc1cc(-c2cnc3ccc(-c4ccncc4)cn23)cnc1Cl [Example 18]", "readout-qualifier": "=", "pIC50": 7.82}
{"compound": "O=c1n(Cc2ccccc2)ccc2ncc(-c3cnc(Cl)c(NS(=O)(=O)c4ccc(F)cc4)c3)n12 [Example 17]", "readout-qualifier": "=", "pIC50": 6.74}
{"compound": "O=S(=O)(Nc1cc(-c2cnc3ccc(N4CCOCC4)cn23)cnc1Cl)c1ccc(F)cc1 [Example 9]", "readout-qualifier": "=", "pIC50": 6.44}
{"compound": "COc1cc(-c2cnc3ccc(N4CCOCC4)cn23)cnc1OC [Example 16]", "readout-qualifier": "=", "pIC50": 5.34}
{"compound": "O=S(=O)(Nc1cc(-c2cnc3ccc(-c4ccncc4)cn23)cnc1Cl)c1ccc(F)cc1 [Example 7]", "readout-qualifier": "=", "pIC50": 7.44}
{"compound": "CN(C)S(=O)(=O)Nc1cc(-c2cnc3cc(-c4ccncc4)ccn23)cnc1Cl [Example 21]", "readout-qualifier": "=", "pIC50": 6.59}
{"compound": "O=S(=O)(Nc1cc(-c2cnc3ccc(Br)cn23)cnc1Cl)c1ccc(F)cc1 [Example 6]", "readout-qualifier": "=", "pIC50": 7.41}
{"compound": "CS(=O)(=O)Nc1cc(-c2cnc3cc(-c4cccnc4)ccn23)cnc1Cl [Example 20]", "readout-qualifier": "=", "pIC50": 7.49}
{"compound": "COc1cc(-c2cnc3ccc(Br)cn23)cnc1OC [Example 11]", "readout-qualifier": "=", "pIC50": 5.66}
{"compound": "Cc1cc2ncc(-c3cnc(Cl)c(NS(=O)(=O)N(C)C)c3)n2cc1-c1ccncc1 [Example 23]", "readout-qualifier": "=", "pIC50": 7.74}
{"compound": "O=S(=O)(Nc1cc(-c2cnc3ccccn23)cnc1Cl)c1ccc(F)cc1 [Example 3]", "readout-qualifier": "=", "pIC50": 6.81}
{"compound": "O=S(=O)(Nc1cc(-c2cnc3ccc(Cl)nn23)cnc1Cl)c1ccc(F)cc1 [Example 25]", "readout-qualifier": "=", "pIC50": 6.99}
{"compound": "O=S(=O)(Nc1cc(-c2cnc3ncccn23)cnc1Cl)c1ccc(F)cc1 [Example 24]", "readout-qualifier": "<", "pIC50": 4.30}
{"compound": "Cc1nc2ccc(Br)cn2c1-c1cnc(Cl)c(NS(=O)(=O)c2ccc(F)cc2)c1 [Example 5]", "readout-qualifier": "=", "pIC50": 6.07}
{"compound": "COc1cc(-c2cnc3ccc(N4CCOC4=O)cn23)cnc1OC [Example 13]", "readout-qualifier": "=", "pIC50": 5.02}
{"compound": "O=S(=O)(Nc1cc(-c2cnc3ccc(-c4cccnc4)cn23)cnc1Cl)c1ccc(F)cc1 [Example 8]", "readout-qualifier": "=", "pIC50": 7.49}
{"compound": "CN(C)S(=O)(=O)Nc1cc(-c2cnc3cc(-c4cccnc4)ccn23)cnc1Cl [Example 22]", "readout-qualifier": "=", "pIC50": 6.80}
{"compound": "CN(C)S(=O)(=O)Nc1cc(-c2cnc3ccc(-c4ccnc(C(F)(F)F)c4)cn23)cnc1Cl [Example 19]", "readout-qualifier": "=", "pIC50": 7.82}
{"compound": "COc1cc(-c2cnc3ccccn23)cnc1OC [Example 10]", "readout-qualifier": "<", "pIC50": 4.30}
{"compound": "COc1cc(-c2cnc3ccc(-c4ccncc4)cn23)cnc1OC [Example 12]", "readout-qualifier": "=", "pIC50": 5.43}

The reported measurements were obtained from patent US8729074B2.
